Test system: COLO 205 colon
experimental_protocol: NCI tumour cell line growth inhibition, 48 h
observable: TGI

C=CC(Cl)(CBr)CCC(Br)=C(C)C (configuration not stated)	33.4 µM
CCOc1ccc(N=NC2C(=O)N(C(=O)CC(=O)Nc3ccccc3OC)N=C2C)cc1 (configuration not stated)	> 100 µM
CC(C)(C)NCc1cc(Nc2ccnc3cc(Cl)ccc23)cc(-c2ccc(Cl)cc2)c1O	3.35 µM
Cc1ccc(S(=O)(=O)N2CCN(S(=O)(=O)c3ccc(C)cc3)Cc3ccccc3C2)cc1	> 100 µM
Cc1cc(N2CCCCC2)nc(N(CCCNc2ccnc3cc(Cl)ccc23)Cc2ccco2)n1	3.53 µM

TGI recorded for this compound, CN1C(=O)c2ccccc2NC(=O)c2cnn(C)c21 , is > 100 µM

TGI recorded for this compound, CC[C@H](C)[C@H]1NC(=O)[C@@H](N[C@](C)(O)[C@@H](N)CC(C)C)[C@@H](C)OC(=O)[C@H](Cc2ccc(OC)cc2)N(C)C(=O)[C@@H]2CCCN2C(=O)[C@H](CC(C)C)NC(=O)[C@@H](C)C(=O)[C@H](C(C)C)OC(=O)C[C@@H]1O , is 0.073 µM

TGI recorded for this compound, CSc1c(C(=O)Nc2ccc(Cl)cc2)c(N)nn1-c1ccccc1 , is > 100 µM

TGI recorded for this compound, Cc1nn(-c2nc3ccccc3s2)c(C)c1Oc1ccccc1O , is 31.1 µM

TGI recorded for this compound, CCOP(C)(=O)C(Cc1c[nH]c2ccccc12)C(=O)O (configuration not stated) , is > 100 µM

TGI recorded for this compound, CC(C)=CCC[C@H](C)[C@@H]1CC[C@]2(C)C3CC[C@]4(OC4(C)C)C(CCCO)[C@]3(C)CC[C@@]12C (some centres not stated) , is > 100 µM

TGI recorded for this compound, COC(=O)CCC(=O)CC(=O)C1=NS(=O)(=O)c2nc(S(N)(=O)=O)c(Cl)cc2N1 , is > 100 µM

* * *

So I've got GI50 readings for NCI-H460 lung, take a look.

Cc1cc(N2CCCCC2)nc(N(CCCNc2ccnc3cc(Cl)ccc23)Cc2ccco2)n1	1.8 µM
COc1ccc2nc(-c3cc(-c4cc(OC)c(OC)c(OC)c4)n[nH]3)[nH]c2c1	2.64 µM
Oc1ccccc1-c1nn(CNc2cccc(Cl)c2)c(=S)o1	20.6 µM
CCCN(CCC)C(=O)C1=Cc2ccc(-c3ccc(C(=O)N4CCCC4)cc3)cc2N=C(N)C1	4.46 µM

GI50 recorded for this compound, c1ccc(Cn2cc3c(c2-c2ccccc2)CCc2cnoc2-3)cc1 , is 3.41 µM

GI50 recorded for this compound, C[n+]1c(/C=C\c2ccc(Cl)cc2)ccc2ccccc21 , is 32.7 µM

GI50 recorded for this compound, C=C1C(=O)O[C@H]2[C@H]1CC/C(COC(=O)CCCCC(=O)OC/C1=C/CC[C@@]3(C)O[C@H]3[C@H]3OC(=O)C(=C)[C@@H]3CC1)=C\CC[C@@]1(C)O[C@@H]21 , is 3.52 µM

* * *

Each item that follows carries a reported TGI.
System: K-562 leukemia
experimental_protocol: NCI tumour cell line growth inhibition, 48 h

O=C(O)CNC(=O)CO/N=C1/C(c2c(O)[nH]c3ccccc23)=Nc2ccccc21	> 100 µM
C/C=C(\C)C(=O)N[C@H]1CC[C@]2(C)C3CC[C@@]4(C)C(CC[C@@H]4C(C)N(C)C)C3CCC2[C@H]1OC(C)=O (stereo partly drawn)	2.17 µM
C[C@H]1O[C@@H](c2c(O)ccc3ccccc23)C[C@@H](N(C)C)C1O (stereo partly drawn)	> 100 µM

TGI recorded for this compound, COC(OC)C1OC(CO)C(n2cc(C)c(=O)[nH]c2=O)C1O (stereo not drawn) , is > 100 µM

TGI recorded for this compound, Cc1ccc(NC(=O)CCC(CC(=O)C(C)(C)C)=NNC(=O)C(=O)NN)cc1C , is > 100 µM

TGI recorded for this compound, COc1ccc(N2C(=O)C3c4[nH]c5ccccc5c4C4CCCCCCCCCCC4C3C2=O)cc1 (stereo not drawn) , is > 78.3 µM

TGI recorded for this compound, COc1cc(-c2nc(Nc3nc4ccccc4[nH]3)nc(N)c2C#N)cc(OC)c1OC , is > 100 µM

TGI recorded for this compound, Cc1[nH]c2ccccc2c1C1Cc2ccccc2N1C(=O)/C=C/C=C/c1ccccc1 (stereo not drawn) , is > 100 µM
